Tgt: CHD4 PHD1/2 (aa 361–503) (human, UniProt Q14839 361-503)
Sequence (Q14839 361-503): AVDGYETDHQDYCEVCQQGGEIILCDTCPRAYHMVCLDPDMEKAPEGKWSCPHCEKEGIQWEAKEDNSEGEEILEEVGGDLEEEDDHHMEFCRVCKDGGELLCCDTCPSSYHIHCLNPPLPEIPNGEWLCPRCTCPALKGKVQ
Protocol description: 150 mM NaCl
Endpoint label: Kd
Answers without a unit are incomplete; give the number and then its unit.

The binder identified as ARTKQTARKSTG [histone H3 peptide (aa 1–12)] registered its Kd at 220 nM

Ref: paper PMC5686127
